All values here come from PubChem BioAssay (NCI).

Reported values of TGI for individual entries
# System: RPMI-8226 leukemia
# experiment.notes: NCI tumour cell line growth inhibition, 48 h
Form entry: value (µM) — number only.

Observe how each entry below is paired with its result.
CCC[CH2][Sn]([CH2]CCC)([O]C(=O)c1ccc(OC)c(OC)c1OC)[O][Sn]([CH2]CCC)([CH2]CCC)[O]C(=O)c1ccc(OC)c(OC)c1OC
0.846
COC(=O)c1c2c(c(C)[n+]([O-])c1C)C(=O)C=C(NCc1ccc(F)cc1)C2=O
4.81

Shifting focus to the compound that follows.
Form field: reported TGI of Cc1c2cc[n+](C)c(C)c2cc2c1[nH]c1ccccc12 73.5

----------
# Tested on: BT-549 breast
# experiment.notes: NCI tumour cell line growth inhibition, 48 h; in the data active = GI50 below about 0.43 µM; inactive = the rest
Outcomes you can answer with include only these: active, inactive

Example cases with answers are listed next.
COC(=O)c1ccc2c(c1)C(=O)c1c-2n(CCCN=[N+]=[N-])c(=O)c2cc(OC)c(OC)cc12
inactive
S=c1[nH]c(=S)c2cc3ccccc3nc2[nH]1
inactive
CN(C)C1CCN(C(=O)c2ccc(NC(=O)Nc3ccc(-c4nc(N5CCOCC5)c5cccn5n4)cc3)cc2)CC1
active
CC(NCCC(c1ccccc1)c1ccccc1)c1ccccc1 (stereo not given)
inactive
COc1cc(Cl)cc(-c2nn(-c3cccc(NC(=O)c4ccc(N5CCOCC5)c(C(F)(F)F)c4)c3)cc2-c2ccncc2)c1
inactive

Hi, do you know how COc1ccc2nc3ccccc3c(NCc3ccc(F)cc3)c2c1 came out in this test? inactive

Hi, do you know how COc1cc(N=Nc2ccc(O)c3ncccc23)c2ncccc2c1 came out in this test? inactive

Hi, do you know how COC(=O)c1c2c(c(C)[n+]([O-])c1C)C(=O)C=C(NCc1ccc(F)cc1)C2=O came out in this test? inactive

Hi, do you know how O=c1oc2ccc(-c3ccc(F)cc3F)cc2c(=O)n1-c1cccc(C(F)(F)F)c1 came out in this test? inactive

Hi, do you know how CCn1c(O)c(/C=N/NC(=O)C(C)c2ccc(CC(C)C)cc2)sc1=S (stereo not given) came out in this test? inactive

----------
Reported values of TGI for individual entries
# Test system: SNB-78 CNS
# experiment.notes: NCI tumour cell line growth inhibition, 48 h

COc1cc2c(cc1OC)C(C(c1ccccc1)c1ccccc1)N(C)CC2 (stereo unspecified)
> 100 µM

Form field: reported TGI of Cc1c(N(C)C)ccc2c(=O)c3cccc(CC(=O)O)c3oc12 > 100 µM

Form field: reported TGI of CC1=Cc2cccc(C)c2C(=O)C1=O > 100 µM

Form field: reported TGI of O=C1OCC/C1=N/O > 100 µM

Form field: reported TGI of O=C(Nc1cccc(Cl)c1)C(=O)C(C(=O)c1ccc2ccccc2c1)C1OC(=O)c2ccccc21 (stereo unspecified) 50.6 µM

Form field: reported TGI of CCCCCCCCCCCCCCCC(=O)OCCOCCOCCOCc1ccccc1 > 100 µM

----------
# System: HOP-18 NSCLC
# experiment.notes: NCI tumour cell line growth inhibition, 48 h
Reported values of TGI for individual entries
Form entry: value (µM) — number only.

CN(C)CCC(/C=C/c1ccccc1)=N\Nc1ccccc1
16.6

Form field: reported TGI of Cc1c2cc[n+](C)c(C)c2cc2c1[nH]c1ccccc12 11.8

----------
Reported values of TGI for individual entries
# System: PC-3 prostate
# experiment.notes: NCI tumour cell line growth inhibition, 48 h

CC(C)(C)[Si](C)(C)OCC1OC(n2ccc(=O)[nH]c2=O)C(O[Si](C)(C)C(C)(C)C)/C1=C/C#N (configuration not stated)
> 100 µM
N#C/C(=C\c1ccc2ccccc2c1)C(=O)c1ccccc1
> 100 µM

Form field: reported TGI of O=C(O)CCNc1ncnc2nc[nH]c12 > 100 µM

Form field: reported TGI of Clc1cc2c(c(CSc3nc4ccccc4n4cccc34)c1)OCOC2 > 100 µM

Form field: reported TGI of COc1ccc(C2c3cn[nH]c3CC3CCCCC32)cc1 (configuration not stated) 29.8 µM

Form field: reported TGI of OC[C@H]1O[C@@H]2O[C@@](COCc3ccccc3)([C@H](OCc3ccccc3)[C@H]2O)[C@@H]1OCc1ccccc1 28 µM

Form field: reported TGI of COc1cc(Cl)cc(-c2nn(-c3cccc(NC(=O)c4ccc(N5CCOCC5)c(C(F)(F)F)c4)c3)cc2-c2ccncc2)c1 > 100 µM

Form field: reported TGI of O=[N+]([O-])C(=C(Nc1cccc2cccnc12)Nc1cccc2cccnc12)C(Cl)=C(Cl)Cl > 100 µM

Form field: reported TGI of NCCCN1c2ccccc2Sc2ccc(Cl)cc21 > 10 µM

Form field: reported TGI of CCOC(=O)Nc1cc2c(c(N)n1)N=C(c1ccccc1)CO2 6.44 µM

Form field: reported TGI of CCOC(=O)N[C@H]1CCc2cc(OC)c(OC)c(OC)c2-c2ccc(SC)c(=O)cc21 > 100 µM

Form field: reported TGI of Cc1c(/C=N\NC(=S)NCCNC(=S)N/N=C\c2c(C)n(C)n(-c3ccccc3)c2=O)c(=O)n(-c2ccccc2)n1C > 100 µM

----------
# Tested on: HCC-2998 colon
# experiment.notes: NCI tumour cell line growth inhibition, 48 h
Reported values of GI50 for individual entries

Observe how each entry below is paired with its result.
N=c1c2c(-c3ccccc3)c(-c3ccccc3)n(Cc3ccccc3)c2ncn1C1CCC(O)CC1 (centres undefined)
1060 nM
COc1ccc(-c2nnc3n(C)c(=O)c4ccccc4n23)cc1N
5290 nM
NC1CCN(Cc2ccccc2)CC1
> 100000 nM
COc1ccc2nc3ccccc3c(NCc3ccc(F)cc3)c2c1
1000 nM
CC(=O)ON1CCCC(P(=O)(OCCSC(=O)C(C)(C)C)OCCSC(=O)C(C)(C)C)C1=O (centres undefined)
1420 nM

Which measured GI50 belongs to CNCCOC(=O)/C=C1\CC[C@H]2[C@@H]([C@@H](O)C(=O)[C@@H]3[C@]2(C)CC[C@H](O)[C@]3(C)C(=O)OC)[C@H]1C , tested on HCC-2998 colon? 1350 nM

Which measured GI50 belongs to O=C(Nc1ccc(Br)cc1F)c1cc(Cl)ccc1O , tested on HCC-2998 colon? 2790 nM

Which measured GI50 belongs to COc1cc(C(=O)N2CCN(C(=O)c3cc(OC)c(OC)c(OC)c3)C2=S)cc(OC)c1OC , tested on HCC-2998 colon? 19000 nM

Which measured GI50 belongs to COc1cc(Cl)cc(-c2nn(-c3cccc(NC(=O)c4ccc(N5CCOCC5)c(C(F)(F)F)c4)c3)cc2-c2ccncc2)c1 , tested on HCC-2998 colon? 6060 nM

----------
# Tested on: SNB-19 CNS
# experiment.notes: NCI tumour cell line growth inhibition, 48 h; in the data active = GI50 below about 0.43 µM; inactive = the rest
Outcomes you can answer with include only these: active, inactive

S=c1[nH]c(=S)c2cc3ccccc3nc2[nH]1
inactive
COC(=O)c1c2c(c(C)[n+]([O-])c1C)C(=O)C=C(NCc1ccc(F)cc1)C2=O
inactive
CC(=O)ON1CCCC(P(=O)(OCCSC(=O)C(C)(C)C)OCCSC(=O)C(C)(C)C)C1=O (configuration not stated)
inactive

Hi, do you know how Cc1cc(N[C@@H]2CCC[C@H](Nc3ccnc4cc(Cl)ccc34)C2)nc(N2CCCCCC2)n1 came out in this test? inactive

Hi, do you know how CN(C)C1CCN(C(=O)c2ccc(NC(=O)Nc3ccc(-c4nc(N5CCOCC5)c5cccn5n4)cc3)cc2)CC1 came out in this test? active

Hi, do you know how O=C(Nc1cccc(C(F)(F)F)c1)c1ccc(NC2=C(Cl)C(=O)N(Cc3ccc(Cl)cc3Cl)C2=O)cc1 came out in this test? inactive

Hi, do you know how CCOC(=O)Nc1cc2c(c(N)n1)N=C(c1ccccc1)CO2 came out in this test? active

Hi, do you know how CCOC(=O)N[C@H]1CCc2cc(OC)c(OC)c(OC)c2-c2ccc(SC)c(=O)cc21 came out in this test? active

Hi, do you know how CCC[CH2][Sn]([CH2]CCC)([O]C(=O)c1ccc(OC)c(OC)c1OC)[O][Sn]([CH2]CCC)([CH2]CCC)[O]C(=O)c1ccc(OC)c(OC)c1OC came out in this test? active

Hi, do you know how O=C(NC[C@H](O)CN1CCc2ccccc2C1)c1cc(NC2COC2)ncn1 came out in this test? inactive

Hi, do you know how Nc1ncc(-c2ccc3ncnc(Nc4ccc(F)c(Cl)c4)c3c2)cn1 came out in this test? inactive

Hi, do you know how C[C@@H]1C[C@@H]([C@@H](CC2CC(=O)NC(=O)C2)OC(=O)CC(=O)c2ccccc2)C(=O)[C@@H](C)C1 came out in this test? inactive

Hi, do you know how O=C(c1ccco1)c1c(C(F)(F)F)nc2ccc(Cl)cc2[n+]1[O-] came out in this test? inactive

Hi, do you know how O=c1oc2ccc(-c3ccc(F)cc3F)cc2c(=O)n1-c1cccc(C(F)(F)F)c1 came out in this test? inactive

Hi, do you know how COc1cc(N=Nc2ccc(O)c3ncccc23)c2ncccc2c1 came out in this test? inactive

Hi, do you know how CN(C)CC[C@H](CSc1ccccc1)Nc1ccc(S(=O)(=O)NC(=O)c2ccc(N3CCN(Cc4ccccc4-c4ccc(Cl)cc4)CC3)cc2)cc1[N+](=O)[O-] came out in this test? inactive

Hi, do you know how Cc1nnc(Nc2ccc(NC(=O)Nc3ccc(Cl)cc3)cc2)c2ccccc12 came out in this test? inactive
